Measured GLP-1 receptor activation relative to Val^8-GLP-1 (7-37) OH by item
experimental.target: human GLP-1 receptor (human, UniProt P43220 24-463)
test.name: cell-based or functional assay
Where no end group is shown, it is not given here.

# annotated cases, reported GLP-1 receptor activation relative to Val^8-GLP-1 (7-37) OH shown
Asked: Which GLP-1 receptor activation relative to Val^8-GLP-1 (7-37) OH value is on record for HVEGTFTSDESSYLEGQAAKEFIAWLVKGRG-OH [Val^8-Glu^16-GLP-1 (7-37) OH] ?
Given back: 0.1 relative to Val^8-GLP-1 (7-37) OH

Asked: Sample HVEGTFTSDVSSYLEGQAAKEFISWLVKGRG-OH [Val^8-Ser^30-GLP-1 (7-37) OH] — what was its GLP-1 receptor activation relative to Val^8-GLP-1 (7-37) OH?
Given back: 0.4 relative to Val^8-GLP-1 (7-37) OH

# input for lookup
Asked: Consider the binder HVEGTFTSDISSYLEEQAAKEFIAWLVKGRG-OH [Val^8-Ile^16-Glu^22-GLP-1 (7-37) OH] and give its measured GLP-1 receptor activation relative to Val^8-GLP-1 (7-37) OH.
Given back: 3.3 relative to Val^8-GLP-1 (7-37) OH
